Each recorded value in this set is attributed to ChEMBL document CHEMBL1201862.

Assign GI50 to each entry below.
Tested on: HL-60
Assay: NCI tumour cell line growth inhibition, 48 h
The source made the active and inactive calls. Cut-off read from the data, not from the text of the source: active = GI50 up to about 1.1 µM and inactive = higher.

Param item = Cc1ccc(NC(=O)S(N)(c2ccc(C)cc2)[N+](=O)[O-])cc1 (stereo not given) ; retrieve measured GI50.
10 µM (inactive)

Could you tell me which GI50 is on file for Cc1nc(=O)n2c(C)n[nH]c2c1C(=O)Nc1cc(Cl)cc(Cl)c1 ?
20.1 µM (inactive)

Please report the recorded GI50 for COC(=O)C1C(O)CCC2CN3CCc4c([nH]c5cccc(OC)c45)C3CC21 (stereo not given) .
> 100 µM (inactive)

For the compound Cn1c(=O)c(C2c3ccccc3Oc3c2c(=O)n(C)c2ccccc32)c(O)c2ccccc21 (stereo not given) , what GI50 is on record?
30.1 µM (inactive)

# GI50 lookup, item CC1C2CC(CC23OCC(CCl)O3)C1(C)C (stereo not given)
> 100 µM (inactive)

Please report the recorded GI50 for Nc1nnc2ccc(Cl)cc2[n+]1[O-] .
29.3 µM (inactive)

Tell me the measured GI50 of Cc1ccc(N(C(=O)Nc2ccc(F)c(Cl)c2)C2=NCC(C)S2)cc1 (stereo not given) , please.
23.8 µM (inactive)

Can you look up the measured GI50 of COCOc1ccc(C2(O)Oc3cc(OCOC)ccc3C2C)c(O)c1 (stereo not given) for me?
10.5 µM (inactive)

Name the reported GI50 value associated with the compound CSC1C(=O)Nc2ccc3ccccc3c21 (stereo not given)
1.54 µM (inactive)

Would you mind telling me what GI50 value was observed for CN(C)c1ccc(/C=C2\C[C@H]3[C@@H]4CCc5cc(OCCN6CCCC6)ccc5[C@H]4CC[C@]3(C)[C@H]2O)cc1 ?
18.9 µM (inactive)
